Experiment: recombinant barcode read abundance after kanamycin selection (control-corrected) (log10(CPM+1)); higher = more efficient recombination; sequences stand for … in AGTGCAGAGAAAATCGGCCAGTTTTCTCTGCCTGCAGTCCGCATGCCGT…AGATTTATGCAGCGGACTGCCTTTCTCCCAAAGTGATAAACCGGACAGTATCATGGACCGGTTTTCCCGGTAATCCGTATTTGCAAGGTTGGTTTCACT; site = the 11-nt target;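 also: IS621 recombinase and bridge RNA in Escherichia coli cells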
Each record's recombinant barcode read abundance (log10) is compared with lower: < 0.07; middle: ≥ 0.07 and < 0.4; upper: ≥ 0.4 to give its class.

>>> answer_label("ATCCTTACTTGGGTTCTAACCTGTTGCCT (site ATCCTTACTAG)")
"upper"
>>> answer_label("GCTCCATCTTGGGTTCTAACCTGTTGCCT (site GCTCCATCTAG)")
"upper"
>>> answer_label("GGAGATGCTTGGGTTCTAACCTGTTGCCT (site GGAGAAGCTAG)")
"upper"
>>> answer_label("ACCTACCCTTGGGTTCTAACCTGTTGCCT (site ACATACACTAG)")
"middle"
>>> answer_label("GGCATTCCTTGGGTTCTAACCTGTTGCCT (site GGCATTCCTAG)")
"lower"
>>> answer_label("AGCGTTGCTTGGGTTCTAACCTGTTGCCT (site AGCATTGCTAG)")
"upper"
>>> answer_label("ATAGGGTCTTGGGTTCTAACCTGTTGCCT (site ATAGGGTCTAG)")
"upper"
>>> answer_label("TGAAATACTTGGGTTCTAACCTGTTGCCT (site TGAACTACTAG)")
"lower"
>>> answer_label("GTCTGAGCTTGGGTTCTAACCTGTTGCCT (site GTCTGAGCTAG)")
"middle"
>>> answer_label("GCAAGCTCTTGGGTTCTAACCTGTTGCTA (site GCAAGCTCTTA)")
"upper"
>>> answer_label("TCCCATTCTTGGGTTCTAACCTGTTGCCT (site TCCCATTCTAG)")
"middle"
>>> answer_label("CTCCGAGCTTGGGTTCTAACCTGTTGCAC (site GGAACGACTAC)")
"lower"
>>> answer_label("CTCAAGGCTTGGGTTCTAACCTGTTGCGT (site CTCCAGGCTCC)")
"middle"
>>> answer_label("TCCCAGTCTTGGGTTCTAACCTGTTGCTG (site TCTCAGTCTCC)")
"lower"
>>> answer_label("CTCTAGACTTGGGTTCTAACCTGTTGCCA (site CTCTACACTTG)")
"lower"
>>> answer_label("CAGTAATCTTGGGTTCTAACCTGTTGCCT (site CAGTAGTCTAG)")
"middle"
>>> answer_label("CTTCACGCTTGGGTTCTAACCTGTTGCCT (site CTTCACACTAT)")
"middle"
>>> answer_label("AAGCGTACTTGGGTTCTAACCTGTTGCCT (site AAGCGTACTAG)")
"upper"
>>> answer_label("GATAGTTCTTGGGTTCTAACCTGTTGCCT (site GATAGTGCTAG)")
"middle"
>>> answer_label("GACAGTACTTGGGTTCTAACCTGTTGCCT (site CACAGTACTAG)")
"middle"
>>> answer_label("CTCCAATCTTGGGTTCTAACCTGTTGCCT (site CTCCAATCTAG)")
"upper"
>>> answer_label("CTAGACTCTTGGGTTCTAACCTGTTGCTG (site CTAGACTCTTA)")
"middle"
>>> answer_label("ACGCATTCTTGGGTTCTAACCTGTTGCCT (site ACGCAGTCTAG)")
"lower"
>>> answer_label("GCTTGTTCTTGGGTTCTAACCTGTTGCCT (site ACTTGTTCTAG)")
"lower"
>>> answer_label("GAGTACCCTTGGGTTCTAACCTGTTGCCT (site GCGTACCCTAG)")
"middle"
>>> answer_label("CGGATCCCTTGGGTTCTAACCTGTTGCCT (site CAGATCCCTAG)")
"upper"
>>> answer_label("CAACCACCTTGGGTTCTAACCTGTTGCTT (site CAACCACCTAA)")
"upper"
>>> answer_label("CGACTGTCTTGGGTTCTAACCTGTTGCCT (site AAGTACACTCA)")
"lower"
>>> answer_label("AACTCAACTTGGGTTCTAACCTGTTGCCT (site AACTCAACTAG)")
"middle"
>>> answer_label("TTGTATTCTTGGGTTCTAACCTGTTGCCT (site TTGAATTCTAA)")
"lower"
